- testSystem: Muscarinic acetylcholine receptor (Rattus norvegicus) (UniProt P08482+P08483+P08485+P08911+P10980)
- condition: 0.1 uM
// reported inhibition per item
Hi! Could you send only the number? It should be in %, unit omitted.

Previously resolved entries follow.
CCN1C(=O)OC[C@H]1Cc1c[nH]cn1 0
CN1C(=O)OC[C@@H]1Cc1cncn1C 11
CCCN1C(=O)OC[C@@H]1Cc1c[nH]cn1 2
CCN1C(=O)OC[C@H]1Cc1cncn1C 6
CCCN1C(=O)OC[C@@H]1Cc1cn(C)cn1 2

INPUT: Item under review: CCN1C(=O)OC[C@H]1Cc1cn(C)cn1 . Reported inhibition?
OUTPUT: 0

INPUT: Endpoint output: inhibition of CN1C(=O)OC[C@@H]1Cc1c[nH]cn1 . Value?
OUTPUT: 0

INPUT: What value of inhibition has been recorded for this entry: CCN1C(=O)OC[C@@H]1Cc1c[nH]cn1
OUTPUT: 4

* * *

- testSystem: Muscarinic acetylcholine receptor (Rattus norvegicus) (UniProt P08482+P08483+P08485+P08911+P10980)
- condition: 1.0 uM
Reported inhibition values for the following molecules.
Please reply with the bare figure in % and do not write the unit itself.

Solved entries (count: 4):
CN1C(=O)OC[C@@H]1Cc1c[nH]cn1 0
CCN1C(=O)OC[C@@H]1Cc1c[nH]cn1 4
CCN1C(=O)OC[C@H]1Cc1c[nH]cn1 2
CCCN1C(=O)OC[C@@H]1Cc1c[nH]cn1 4

INPUT: Using the record for CCN1C(=O)OC[C@H]1Cc1cncn1C , report its inhibition.
OUTPUT: 0

INPUT: Which inhibition value is on record for CCN1C(=O)OC[C@H]1Cc1cn(C)cn1 ?
OUTPUT: 1

INPUT: Value lookup for inhibition; key = CCCN1C(=O)OC[C@@H]1Cc1cn(C)cn1
OUTPUT: 10

INPUT: I would be grateful if you could share the reported inhibition for CN1C(=O)OC[C@@H]1Cc1cncn1C .
OUTPUT: 2

* * *

- testSystem: Muscarinic acetylcholine receptor M2 (Rattus norvegicus)
- Sequence (P10980 whole entry): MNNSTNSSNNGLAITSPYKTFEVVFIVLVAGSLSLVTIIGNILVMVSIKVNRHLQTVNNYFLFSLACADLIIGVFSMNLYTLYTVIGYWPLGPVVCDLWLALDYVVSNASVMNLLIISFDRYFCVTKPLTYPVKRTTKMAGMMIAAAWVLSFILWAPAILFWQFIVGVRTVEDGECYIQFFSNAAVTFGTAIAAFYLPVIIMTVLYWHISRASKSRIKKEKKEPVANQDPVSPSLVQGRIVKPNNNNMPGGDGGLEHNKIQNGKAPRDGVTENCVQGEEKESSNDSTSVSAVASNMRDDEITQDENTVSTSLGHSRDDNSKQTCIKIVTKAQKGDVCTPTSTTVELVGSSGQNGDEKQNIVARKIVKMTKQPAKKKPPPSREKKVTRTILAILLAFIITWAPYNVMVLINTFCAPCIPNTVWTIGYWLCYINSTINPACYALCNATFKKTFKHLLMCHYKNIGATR
Measured IC50 values are reported for all entries that follow.
Give the value in µM but do not write µM after it.

molecule	IC50 / µM
CCN1C(=O)OC[C@@H]1Cc1cncn1C	30.9

INPUT: Item: O=C1CCCN1CC#CCN1CCCC1 [OXOTREMORINE] Test system: Muscarinic acetylcholine receptor M2 (Rattus norvegicus) Read-out: IC50 Value: ?
OUTPUT: 0.86
